Measurement notes: Half life in human
Format: ADME
Property label: half-life
Kindly write the number and append the unit.

IN: For O=C(C1CCCCC1)N1CC(=O)N2CCc3ccccc3C2C1 (stereo unspecified) , what is its reported half-life?
OUT: 1.5 h

---

Measurement notes: Apparent permeability in human Caco2 cells
Assay type: ADME, cell-based
Test settings: Caco-2
Property label: Papp (×10⁻⁶ cm/s)
Answers are plain numbers, in ×10⁻⁶ cm/s.

IN: What value of Papp has been reported for the following compound? O=C(C1CCCCC1)N1CC(=O)N2CCc3ccccc3C2C1 (stereo unspecified) [PRAZIQUANTEL]
OUT: 44

Each recorded value in this set is attributed to ChEMBL document CHEMBL4033679.
